# Tgt: Mu-type opioid receptor (Homo sapiens) (UniProt P35372)
# Sequence (P35372 whole entry): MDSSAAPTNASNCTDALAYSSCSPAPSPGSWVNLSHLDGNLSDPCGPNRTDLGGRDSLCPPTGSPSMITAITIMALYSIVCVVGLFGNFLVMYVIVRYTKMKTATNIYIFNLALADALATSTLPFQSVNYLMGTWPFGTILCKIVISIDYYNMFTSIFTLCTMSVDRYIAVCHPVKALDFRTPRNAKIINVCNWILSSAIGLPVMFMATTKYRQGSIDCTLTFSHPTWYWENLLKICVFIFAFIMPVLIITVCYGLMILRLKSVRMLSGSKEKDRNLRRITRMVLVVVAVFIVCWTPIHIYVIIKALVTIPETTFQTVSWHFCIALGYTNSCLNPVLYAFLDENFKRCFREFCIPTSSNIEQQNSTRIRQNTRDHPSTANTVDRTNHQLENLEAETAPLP
# Protocol Description: Intrinsic activity at human mu opioid receptor expressed in CHOK1 cell membranes at 0.00001 to 20 uM after 30 mins by GTP-Eu nucleotide exchange assay relative to DAMGO
# Format: functional
# Condition Info: CHO-K1
Parameter: Intrinsic activity

Consider the reported Intrinsic activity for these compounds:
>  <Smiles Representation>
NC(=O)c1cccc([C@H]2C[C@H]3CC[C@@H](C2)N3CCN(CC23CC4CC(CC(O)(C4)C2)C3)C(=O)[C@@H](O)CO)c1

>  <Tgt>
Mu-type opioid receptor (Homo sapiens) (UniProt P35372)

>  <Intrinsic activity>
< 40%

$$$$
>  <Smiles Representation>
CC(C)CC(=O)N(CCN1[C@@H]2CC[C@H]1C[C@@H](c1cccc(O)c1)C2)CC1CCCCC1

>  <Tgt>
Mu-type opioid receptor (Homo sapiens) (UniProt P35372)

>  <Intrinsic activity>
< 40%

$$$$
>  <Smiles Representation>
C[C@H](O)C(=O)N(CCN1[C@@H]2CC[C@H]1C[C@@H](c1cccc(C(N)=O)c1)C2)CC1CCC1.O=C(O)C(F)(F)F

>  <Tgt>
Mu-type opioid receptor (Homo sapiens) (UniProt P35372)

>  <Intrinsic activity>
< 40%

$$$$
>  <Smiles Representation>
CC(CO)(CO)C(=O)N(CCN1[C@@H]2CC[C@H]1C[C@@H](c1cccc(C(N)=O)c1)C2)CC1CCC1.O=C(O)C(F)(F)F

>  <Tgt>
Mu-type opioid receptor (Homo sapiens) (UniProt P35372)

>  <Intrinsic activity>
< 40%

$$$$

Quick one: Intrinsic activity of `O=C(O)CC(=O)N(CCN1[C@@H]2CC[C@H]1C[C@@H](c1cccc(O)c1)C2)Cc1c(F)cccc1F` ?
< 40%

Would you kindly repeat that for `O=C(Nc1cccc(F)c1)N(CCN1[C@@H]2CC[C@H]1C[C@@H](c1cccc(O)c1)C2)CC1CCCCC1` ?
< 40%

Would you kindly repeat that for `C[C@@H](O)[C@H](O)C(=O)N(CCN1[C@@H]2CC[C@H]1C[C@@H](c1cccc(C(N)=O)c1)C2)Cc1ccccc1` ?
< 40%

Data provenance is ChEMBL document CHEMBL3879907.
